- Tested on: HCT116 (colorectal carcinoma)
- PROCEDURE DETAILS: MTT cytotoxicity assay, HCT116
- Assay type: cell-based, human
- TEST CONTEXT: selectivity index: ratio of IC50 Hek293T to IC50 HCT116
- Method: The parent compound harmine, as well as the reference drug 5-fluorouracil, were used as positive controls. The experiments were carried out on five human cell lines purchased from American Type Culture Collection (ATCC): HepG2 (hepatocellular carcinoma; ATCC® HB-8065™), SW620 (colorectal adenocarcinoma; ATCC® CCL-227™), HCT116 (colorectal carcinoma; ATCC® CCL-247™), MCF-7 (breast adenocarcinoma; ATCC® HTB-22™), and Hek293T (embryonic kidney cells; ATCC® CRL-3216™). […]
MEASURE NAME: SI (HCT116)
Write no unit; give the number alone.

These recorded examples may help you get a feel for the data.
SMILES REPR	TESTED SYSTEM	VAL
Cc1nccc2c1[nH]c1ccc(OCCn3cc(-[c-]4cccc4)nn3)cc12.[Fe+2].c1cc[cH-]c1	HCT116 (colorectal carcinoma)	0.8
Cc1nccc2c1[nH]c1cc(OCCNC(=O)[c-]3cccc3)ccc12.[Fe+2].c1cc[cH-]c1	HCT116 (colorectal carcinoma)	2.8

Q. SI (HCT116) lookup needed for COc1ccc2c3ccnc(C)c3n(CCNC(=O)C[c-]3cccc3)c2c1.[Fe+2].c1cc[cH-]c1 , thanks.
A. 4.1
